- procedureSummary: Average particle size and polydispersity index of lipid nanoparticles (dynamic light scattering)
- Format: physicochemical
- recordedConditions: Table 3; Fluc mRNA-loaded lipid nanoparticles; TxT/DSPC/chol/PEG-DMG=50/3/47/1.5 (mol%)
quantityName: Pdl

Incoming: Which Pdl is listed for CCCCCCC(CCCCCC)COC(=O)CCCC(=O)OCC(COC(=O)CCCC(=O)OCC(CCCCCC)CCCCCC)(COC(=O)CCCC(=O)OCC(CCCCCC)CCCCCC)NC(=O)CCN1CCCCC1 [TxT-5-5E14] ?
Outgoing: 0.17

Incoming: Another compound to check: CCCCCCN(CCCCCC)C(=O)CCCC(=O)OCC(COC(=O)CCCC(=O)N(CCCCCC)CCCCCC)(COC(=O)CCCC(=O)N(CCCCCC)CCCCCC)NC(=O)CCN1CCCCC1 [TxT-5-5A12]
Outgoing: 0.10

Incoming: Another compound to check: CCCCCCCCC(CCCCCC)CNC(=O)CCCC(=O)OCC(COC(=O)CCCC(=O)NCC(CCCCCC)CCCCCCCC)(COC(=O)CCCC(=O)NCC(CCCCCC)CCCCCCCC)NC(=O)CCN1CCCCC1 (stereo not drawn) [TxT-5-5A16β]
Outgoing: 0.07

Incoming: Another compound to check: CCCCCCCCCCN(CCCCCCCCCC)C(=O)CCC(=O)OCC(COC(=O)CCC(=O)N(CCCCCCCCCC)CCCCCCCCCC)(COC(=O)CCC(=O)N(CCCCCCCCCC)CCCCCCCCCC)NC(=O)CCN1CCCCC1 [TxT-5-4A20]
Outgoing: 0.08

Incoming: Another compound to check: CCCCCCC(CCCC)CNC(=O)CCCC(=O)OCC(COC(=O)CCCC(=O)NCC(CCCC)CCCCCC)(COC(=O)CCCC(=O)NCC(CCCC)CCCCCC)NC(=O)CCN1CCCCC1 (stereo not drawn) [TxT-5-5A12β]
Outgoing: 0.08

---

- procedureSummary: Average particle size and polydispersity index of lipid nanoparticles (dynamic light scattering)
- Assay type: physicochemical
- recordedConditions: Table 1; Fluc mRNA-loaded lipid nanoparticles; TxT/DSPC/chol/PEG-DMG=50/15/35/1.5 (mol%)
quantityName: Pdl
// no unit, no text: just the number

Incoming: Which Pdl is listed for CCCCCN(CCCCC)C(=O)CCCC(=O)OCC(COC(=O)CCCC(=O)N(CCCCC)CCCCC)(COC(=O)CCCC(=O)N(CCCCC)CCCCC)NC(=O)CCN1CCCCC1 ?
Outgoing: 0.42

Incoming: Another compound to check: CCCCCCN(CCCCCC)C(=O)CCCC(=O)OCC(COC(=O)CCCC(=O)N(CCCCCC)CCCCCC)(COC(=O)CCCC(=O)N(CCCCCC)CCCCCC)NC(=O)CCN1CCCCC1
Outgoing: 0.08

Incoming: Another compound to check: CCCCN(CCCC)C(=O)CCCC(=O)OCC(COC(=O)CCCC(=O)N(CCCC)CCCC)(COC(=O)CCCC(=O)N(CCCC)CCCC)NC(=O)CCN1CCCCC1
Outgoing: 0.19

Incoming: Another compound to check: CCCCC(CC)CNC(=O)CCCC(=O)OCC(COC(=O)CCCC(=O)NCC(CC)CCCC)(COC(=O)CCCC(=O)NCC(CC)CCCC)NC(=O)CCN1CCCCC1 (stereo not shown)
Outgoing: 0.30

Incoming: Another compound to check: CCCCCCC(CCCC)CNC(=O)CCCC(=O)OCC(COC(=O)CCCC(=O)NCC(CCCC)CCCCCC)(COC(=O)CCCC(=O)NCC(CCCC)CCCCCC)NC(=O)CCN1CCCCC1 (stereo not shown)
Outgoing: 0.08

Incoming: Another compound to check: CCCCCCCCN(CCCCCCCC)C(=O)CCCC(=O)OCC(COC(=O)CCCC(=O)N(CCCCCCCC)CCCCCCCC)(COC(=O)CCCC(=O)N(CCCCCCCC)CCCCCCCC)NC(=O)CCN1CCCCC1
Outgoing: 0.11

Incoming: Another compound to check: CCCCCCCN(CCCCCCC)C(=O)CCCC(=O)OCC(COC(=O)CCCC(=O)N(CCCCCCC)CCCCCCC)(COC(=O)CCCC(=O)N(CCCCCCC)CCCCCCC)NC(=O)CCN1CCCCC1
Outgoing: 0.11

---

- procedureSummary: Zeta potential of lipid nanoparticles
- Format: physicochemical
- recordedConditions: Table 3; Fluc mRNA-loaded lipid nanoparticles; TxT/DSPC/chol/PEG-DMG=50/3/47/1.5 (mol%)
quantityName: ζ-potential (mV)
Answer with a number only, understood to be in mV.

Incoming: Which ζ-potential is listed for CCCCCCC(CCCCCC)COC(=O)CCCC(=O)OCC(COC(=O)CCCC(=O)OCC(CCCCCC)CCCCCC)(COC(=O)CCCC(=O)OCC(CCCCCC)CCCCCC)NC(=O)CCN1CCCCC1 ?
Outgoing: -9.7

Incoming: Another molecule to check: CCCCCCCCN(CCCCCCCC)C(=O)CCCC(=O)OCC(COC(=O)CCCC(=O)N(CCCCCCCC)CCCCCCCC)(COC(=O)CCCC(=O)N(CCCCCCCC)CCCCCCCC)NC(=O)CCN1CCCCC1
Outgoing: -2.7

Incoming: Another molecule to check: CCCCCCN(CCCCCC)C(=O)CCCC(=O)OCC(COC(=O)CCCC(=O)N(CCCCCC)CCCCCC)(COC(=O)CCCC(=O)N(CCCCCC)CCCCCC)NC(=O)CCN1CCCCC1
Outgoing: -6.7

---

- procedureSummary: Average particle size and polydispersity index of lipid nanoparticles (dynamic light scattering)
- Type: physicochemical
- recordedConditions: Table 1; Fluc mRNA-loaded lipid nanoparticles; TxT/DSPC/chol/PEG-DMG=50/15/35/1.5 (mol%)
quantityName: number average particle size (nm)
Answer with a number only, understood to be in nm.

Incoming: Which number average particle size is listed for CCCCCCCN(CCCCCCC)C(=O)CCCC(=O)OCC(COC(=O)CCCC(=O)N(CCCCCCC)CCCCCCC)(COC(=O)CCCC(=O)N(CCCCCCC)CCCCCCC)NC(=O)CCN1CCCCC1 [TxT-5-5A14] ?
Outgoing: 72.4

Incoming: Another molecule to check: CCCCCN(CCCCC)C(=O)CCCC(=O)OCC(COC(=O)CCCC(=O)N(CCCCC)CCCCC)(COC(=O)CCCC(=O)N(CCCCC)CCCCC)NC(=O)CCN1CCCCC1 [TxT-5-5A10]
Outgoing: 213.0

Incoming: Another molecule to check: CCCCN(CCCC)C(=O)CCCC(=O)OCC(COC(=O)CCCC(=O)N(CCCC)CCCC)(COC(=O)CCCC(=O)N(CCCC)CCCC)NC(=O)CCN1CCCCC1 [TxT-5-5A8]
Outgoing: 61.6

Incoming: Another molecule to check: CCCCCCCCN(CCCCCCCC)C(=O)CCCC(=O)OCC(COC(=O)CCCC(=O)N(CCCCCCCC)CCCCCCCC)(COC(=O)CCCC(=O)N(CCCCCCCC)CCCCCCCC)NC(=O)CCN1CCCCC1 [TxT-5-5A16]
Outgoing: 61.0

Incoming: Another molecule to check: CCCCCCC(CCCC)CNC(=O)CCCC(=O)OCC(COC(=O)CCCC(=O)NCC(CCCC)CCCCCC)(COC(=O)CCCC(=O)NCC(CCCC)CCCCCC)NC(=O)CCN1CCCCC1 (stereo not drawn) [TxT-5-5A12β]
Outgoing: 82.8

Incoming: Another molecule to check: CCCCCCN(CCCCCC)C(=O)CCCC(=O)OCC(COC(=O)CCCC(=O)N(CCCCCC)CCCCCC)(COC(=O)CCCC(=O)N(CCCCCC)CCCCCC)NC(=O)CCN1CCCCC1 [TxT-5-5A12]
Outgoing: 124.5

Incoming: Another molecule to check: CCCCC(CC)CNC(=O)CCCC(=O)OCC(COC(=O)CCCC(=O)NCC(CC)CCCC)(COC(=O)CCCC(=O)NCC(CC)CCCC)NC(=O)CCN1CCCCC1 (stereo not drawn) [TxT-5-5A8β]
Outgoing: 110.3

---

- procedureSummary: Zeta potential of lipid nanoparticles
- Type: physicochemical
- recordedConditions: Table 3; Fluc mRNA-loaded lipid nanoparticles; TxT/DSPC/chol/PEG-DMG=50/3/47/1.5 (mol%)
quantityName: ζ-potential (mV)
Answer with a number only, understood to be in mV.

Incoming: Which ζ-potential is listed for CCCCCCC(CCCC)CNC(=O)CCCC(=O)OCC(COC(=O)CCCC(=O)NCC(CCCC)CCCCCC)(COC(=O)CCCC(=O)NCC(CCCC)CCCCCC)NC(=O)CCN1CCCCC1 (stereo not drawn) [TxT-5-5A12β] ?
Outgoing: -5.6

Incoming: Another molecule to check: CCCCCCCN(CCCCCCC)C(=O)CCCC(=O)OCC(COC(=O)CCCC(=O)N(CCCCCCC)CCCCCCC)(COC(=O)CCCC(=O)N(CCCCCCC)CCCCCCC)NC(=O)CCN1CCCCC1 [TxT-5-5A14]
Outgoing: -7.5

Incoming: Another molecule to check: CCCCCCCCCCN(CCCCCCCCCC)C(=O)CCC(=O)OCC(COC(=O)CCC(=O)N(CCCCCCCCCC)CCCCCCCCCC)(COC(=O)CCC(=O)N(CCCCCCCCCC)CCCCCCCCCC)NC(=O)CCN1CCCCC1 [TxT-5-4A20]
Outgoing: -3.7

Incoming: Another molecule to check: CCCCCCCCC(CCCCCC)CNC(=O)CCCC(=O)OCC(COC(=O)CCCC(=O)NCC(CCCCCC)CCCCCCCC)(COC(=O)CCCC(=O)NCC(CCCCCC)CCCCCCCC)NC(=O)CCN1CCCCC1 (stereo not drawn) [TxT-5-5A16β]
Outgoing: -7.4

Incoming: Another molecule to check: CCCCC(CC)CN(CC(CC)CCCC)C(=O)CCCC(=O)OCC(COC(=O)CCCC(=O)N(CC(CC)CCCC)CC(CC)CCCC)(COC(=O)CCCC(=O)N(CC(CC)CCCC)CC(CC)CCCC)NC(=O)CCN1CCCCC1 (centres unmarked) [TxT-5-5A16b]
Outgoing: -11.2

Data origin: patent EP4722195A1
